- target.system: TYK2 (aa 871-1187, catalytic domain, GST-tag) (Homo sapiens)
- Construct: JAK1 (aa 850-1154) and TYK2 (aa 871-1187) are expressed with an N-terminally fused GST-tag; GST (N); purchased Carna Biosciences, Inc; host or cells: baculovirus expression system
- Sequence (P29597 871-1187): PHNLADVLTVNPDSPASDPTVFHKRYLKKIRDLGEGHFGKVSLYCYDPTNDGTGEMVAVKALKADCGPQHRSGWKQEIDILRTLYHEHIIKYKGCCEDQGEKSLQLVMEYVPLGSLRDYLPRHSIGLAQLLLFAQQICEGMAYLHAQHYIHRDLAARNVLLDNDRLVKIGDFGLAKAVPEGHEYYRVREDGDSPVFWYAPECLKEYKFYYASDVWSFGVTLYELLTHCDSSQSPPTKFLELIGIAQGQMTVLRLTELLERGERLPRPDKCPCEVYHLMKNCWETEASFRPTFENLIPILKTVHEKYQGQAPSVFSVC
- experiment.description: JAK kinase assay (HTRF, phosphorylation of TK substrate-biotin), TYK2
- Assay type: biochemical
- measurement.parameters: ATP at Km (13 μM); read-out: TYK2 kinase inhibitory activity (EC50 indicator)
pEC50: −log10 of the molar value.
experimental.readout: pEC50

O=C(c1cc2c(s1)CCC2)N1C2CCC1CN(c1ncnc3[nH]ccc13)C2 | < 6.30
CC(=O)Nc1nc(N2CCN(C(=O)Cc3ccc(C#N)cc3)C3(CC3)C2)c2cc[nH]c2n1 | 6.30 to 7.00
O=C(Cc1cccs1)N1[C@@H]2CC[C@H]1CN(c1ncnc3[nH]ccc13)C2 | < 6.30
O=C(CC(F)(F)F)N1CCN(c2ncnc3[nH]ccc23)CC12CC2 | < 6.30
N#CCCC(=O)N1CCN(c2ncnc3[nH]ccc23)CC12CC2 | 6.30 to 7.00

Using known records, supply pEC50 for O=C(c1cccc(-c2ccccc2)c1)N1CCN(c2ncnc3[nH]ccc23)CC12CC2
6.30 to 7.00

Please indicate pEC50 recorded for N#Cc1ccc(CC(=O)N2CCN(c3ncnc4[nH]ccc34)CC23CC3)cc1
> 7.00

Provide one value: measured pEC50 of CCCS(=O)(=O)N1[C@@H]2CC[C@H]1CN(c1ncnc3[nH]ccc13)C2
< 6.30

Tell me its pEC50 given N#Cc1cccc(CC(=O)N2CCN(c3ncnc4[nH]ccc34)CC23CC3)c1 as the entry.
< 6.30

For the molecule CC(=O)c1cc(C(=O)N2[C@@H]3CC[C@H]2CN(c2ncnc4[nH]ccc24)C3)cs1 , report pEC50.
< 6.30

// Input: O=C(O)C1(C(=O)N2CCN(c3ncnc4[nH]ccc34)CC23CC3)CC1 . Output its pEC50 only.
< 6.30
